Readout label: logP
The answer should be a number; do not append a unit.

{"columns": ["Molecule", "Reported measurement"],
 "data": [
  ["COC(=O)c1oc2ccccc2c1C(C#N)=NOP(=O)(OC(C)C)OC(C)C", 1.36],
  ["CC(C)OP(=O)(ON=C(C#N)c1ccc(Cl)cc1)OC(C)C", -0.2]
]}

Lab note: `CCOP(=O)(OCC)ON=C(C#N)c1csc2ccccc12` gave logP of 0.56

Lab note: `COP(=S)(OC)ON=C(C#N)c1csc2ccccc12` gave logP of 1.94

====

assay: method code SF-AS, from DOI: 10.1080/02772249909358822
Readout label: logP

{"columns": ["Molecule", "logP"],
 "data": [
  ["CCOP(=S)(OCC)ON=C(C#N)c1ccc(OC)c(OC)c1", -0.19]
]}

Lab note: `COc1ccc(C(C#N)=NOP(=S)(OC(C)C)OC(C)C)cc1OC` gave logP of 0.47

Lab note: `CC(C)OP(=O)(ON=C(C#N)c1ccc(F)cc1)OC(C)C` gave logP of -0.43

Measured values drawn from the SangsterLogP compilation for this set.
